Every entry's value here was drawn from the supplement of paper PMC10065799.

target: EPHB1 (UniProt P54762); experiment: phosphorylation enrichment, bacterial display (enrichment ratio); higher = better substrate or ligand; peptides without Tyr show the background
Sequence (P54762 whole entry, looked up): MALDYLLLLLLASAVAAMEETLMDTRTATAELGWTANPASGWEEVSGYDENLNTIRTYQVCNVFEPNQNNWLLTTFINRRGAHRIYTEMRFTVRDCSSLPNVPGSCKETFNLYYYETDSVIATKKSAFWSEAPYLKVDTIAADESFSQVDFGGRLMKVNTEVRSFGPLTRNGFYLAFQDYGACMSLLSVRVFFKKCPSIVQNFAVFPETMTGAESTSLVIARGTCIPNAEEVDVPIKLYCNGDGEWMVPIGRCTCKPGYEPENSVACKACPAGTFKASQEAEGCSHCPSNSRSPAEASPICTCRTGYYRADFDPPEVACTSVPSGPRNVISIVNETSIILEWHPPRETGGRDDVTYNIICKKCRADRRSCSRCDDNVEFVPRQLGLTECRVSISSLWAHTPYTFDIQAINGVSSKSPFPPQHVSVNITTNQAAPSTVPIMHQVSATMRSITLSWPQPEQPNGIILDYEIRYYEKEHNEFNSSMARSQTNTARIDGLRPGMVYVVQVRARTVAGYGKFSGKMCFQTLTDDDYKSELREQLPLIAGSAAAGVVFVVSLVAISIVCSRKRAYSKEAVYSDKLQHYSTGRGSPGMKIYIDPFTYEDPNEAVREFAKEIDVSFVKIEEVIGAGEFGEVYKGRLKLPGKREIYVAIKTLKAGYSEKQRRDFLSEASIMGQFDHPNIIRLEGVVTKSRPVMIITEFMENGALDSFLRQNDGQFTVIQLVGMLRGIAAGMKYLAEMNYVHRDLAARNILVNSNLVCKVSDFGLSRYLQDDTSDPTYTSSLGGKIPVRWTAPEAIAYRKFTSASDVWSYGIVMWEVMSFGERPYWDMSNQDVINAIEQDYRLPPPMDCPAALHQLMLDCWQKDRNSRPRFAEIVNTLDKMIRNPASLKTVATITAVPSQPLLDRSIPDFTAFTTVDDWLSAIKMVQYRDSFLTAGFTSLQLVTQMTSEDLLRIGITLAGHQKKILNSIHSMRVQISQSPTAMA
Please use 1 (yes) whenever phosphorylation enrichment is not below 0.6, and 0 (no) whenever it is.

Please review the entries below; each comes with its answer.
• VREIRYQGGNR [VWF_Y1570] = 0 (no)
• YLELNYKEDEY [MME_Y502] = 1 (yes)
• RSYSPCDYQPC [TNS1_Y796_Y796C] = 1 (yes)
• TILEHYRRTHC [MYBPC3_Y1119_V1115I] = 0 (no)
• ILDEAYVMAIV [EGFR_Y764_S768I] = 1 (yes)
• KDAGDYKFKAK [LRIT3_Y326_C328Y_YF] = 0 (no)

Kindly determine if phosphorylation enrichment recorded for KNDSIYVVKGN [KIT_Y823_N822I] is above or exactly 0.6.
0 (no)

Item: ASNNPYFRDQA [RPGRIP1_Y846]
0 (no)

Item: HLNLTYRILSF [MMP23B_Y95_F91L]
1 (yes)

Item: PVDTFYDSTRG [DYNC2H1_Y2231_M2227V_YF]
1 (yes)

Item: SLRAHYDTPRS [DOK7_Y405]
0 (no)

Item: FKGKKYKPLDL [RPL35_Y78_YF]
0 (no)

Item: HEGKIYEFNQV [ZNF665_Y162_YF]
1 (yes)

---

tested on: Fer (mouse); assay: phosphorylation enrichment, bacterial display (enrichment ratio); higher = better substrate or ligand; peptides without Tyr show the background
Recorded phosphorylation enrichment by entry
Kindly provide the number alone.

Previously resolved entries follow.
- LAAAKYKLNVD [SMARCA2_Y1190]: 0.52
- VPLLEYYRDIF [CDAN1_Y712]: 0.544
- IGRHAYGDQFR [IDH1_Y135_YF]: 0.339

What does the data say about its phosphorylation enrichment? Entry: KDQPDYKYQPR [SOX9_Y172_H169Q]
0.491

Item: NKVFTYIFIME [SCN4A_Y1074_D1069N]
0.589

Item: FDAHIYEGCVI [PRKCD_Y64_R67C]
10.5

Item: DEGVNYFMSKG [FBXO8_Y156]
0.402

---

target: FGFR1 (UniProt P11362); assay: phosphorylation enrichment, bacterial display (enrichment ratio); higher = better substrate or ligand; peptides without Tyr show the background
Sequence (P11362 whole entry, looked up): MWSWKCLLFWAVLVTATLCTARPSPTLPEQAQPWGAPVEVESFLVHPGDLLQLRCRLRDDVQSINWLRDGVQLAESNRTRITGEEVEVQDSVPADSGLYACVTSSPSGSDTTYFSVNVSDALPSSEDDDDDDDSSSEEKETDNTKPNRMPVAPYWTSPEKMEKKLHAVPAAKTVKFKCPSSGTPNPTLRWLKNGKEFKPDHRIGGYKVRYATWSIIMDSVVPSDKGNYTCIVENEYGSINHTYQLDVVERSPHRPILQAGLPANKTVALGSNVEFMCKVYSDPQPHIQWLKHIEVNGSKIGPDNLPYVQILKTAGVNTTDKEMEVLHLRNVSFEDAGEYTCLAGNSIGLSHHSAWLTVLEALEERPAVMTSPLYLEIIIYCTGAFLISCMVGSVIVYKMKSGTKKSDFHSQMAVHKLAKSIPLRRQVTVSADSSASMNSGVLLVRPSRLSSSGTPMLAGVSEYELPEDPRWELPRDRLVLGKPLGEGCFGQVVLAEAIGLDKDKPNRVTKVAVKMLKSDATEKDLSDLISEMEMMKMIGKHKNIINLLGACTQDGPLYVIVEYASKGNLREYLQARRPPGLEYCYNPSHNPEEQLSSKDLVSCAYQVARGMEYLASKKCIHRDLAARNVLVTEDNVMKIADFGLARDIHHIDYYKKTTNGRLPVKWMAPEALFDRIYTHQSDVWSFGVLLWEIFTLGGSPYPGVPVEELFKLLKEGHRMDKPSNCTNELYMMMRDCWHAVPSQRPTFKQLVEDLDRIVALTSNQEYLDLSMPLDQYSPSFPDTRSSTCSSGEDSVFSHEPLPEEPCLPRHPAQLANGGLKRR
Please use TRUE whenever phosphorylation enrichment is not below 0.5, and FALSE whenever it is.

Please review the entries below; each comes with its answer.
* SNKLTYGTMVF [ACOX1_Y275] | FALSE
* ITRDEYPSNPM [CEMIP2_Y1015] | FALSE
* HKLSFYEFDFE [BTK_Y40_YF] | TRUE
* NHFKRYNLCAE [PTEN_Y68_I67R_YF] | FALSE

Kindly determine if phosphorylation enrichment recorded for TRHDEYLEVTK [MAP1A_Y2217] is above or exactly 0.5.
TRUE

Item: GGYTCYSDGKK [PROS1_Y266_C267S]
TRUE

---

target: Hck (UniProt P08631); test: phosphorylation enrichment, bacterial display (enrichment ratio); higher = better substrate or ligand; peptides without Tyr show the background
Sequence (P08631 whole entry, looked up): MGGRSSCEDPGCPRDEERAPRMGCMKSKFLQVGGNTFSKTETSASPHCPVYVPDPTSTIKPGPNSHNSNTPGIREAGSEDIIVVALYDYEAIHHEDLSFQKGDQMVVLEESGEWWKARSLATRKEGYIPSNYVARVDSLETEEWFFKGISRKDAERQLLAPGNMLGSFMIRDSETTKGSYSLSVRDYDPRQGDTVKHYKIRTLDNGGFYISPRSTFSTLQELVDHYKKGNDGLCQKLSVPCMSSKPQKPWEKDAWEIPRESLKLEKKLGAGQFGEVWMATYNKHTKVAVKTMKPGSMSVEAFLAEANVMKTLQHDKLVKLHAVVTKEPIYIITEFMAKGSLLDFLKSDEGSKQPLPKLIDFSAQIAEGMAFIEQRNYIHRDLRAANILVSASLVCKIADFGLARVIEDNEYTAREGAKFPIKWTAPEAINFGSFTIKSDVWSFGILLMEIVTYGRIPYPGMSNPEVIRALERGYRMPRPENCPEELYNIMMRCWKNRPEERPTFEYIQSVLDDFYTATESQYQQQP
observable: phosphorylation enrichment
Kindly provide the number alone.

• PVGVLYKVKVY [PTS_Y128] = 0.687
• PLFRKYWPNHI [GREB1L_Y1560_YF] = 0.727
• EQKKFYNAMKK [SCN5A_Y1495_YF] = 0.367
• HFVDEYDPTIE [KRAS_Y32] = 0.828
• AEVDTYCRHNF [HLA-DRB1_Y107_A103E_YF] = 0.6
• FYLGAYDRFLP [SLC22A5_Y486_V481F] = 3.38

Attention now shifts to the item below.
Query the reported phosphorylation enrichment for Hck (UniProt P08631); item: QMVGMYASFFM [AVPR2_Y124_S127F_YF]
5.82

---

target: c-Src SH2; assay: SH2 binding enrichment of the phosphorylated peptide, bacterial display (enrichment ratio); higher = better substrate or ligand; peptides without Tyr show the background
observable: SH2 binding enrichment
Kindly provide the number alone.

Previously resolved entries follow.
- CDDGKYVFVVT [RPS6KA3_Y488_Y483C_YF]: 0.4
- KVGNEYVNKGQ [MYH7_Y410_T412N]: 0.444
- PSQRHYVFFFS [PTEN_Y174_R173H_YF]: 0.896
- QNTGDDFDLFG [PTPN11_Y62_Y62D_YF]: 0.402
- VEEDTYTMPST [PTK2_Y407_D402V]: 0.424
- RNFGTYTAGLS [RHBDD1_Y264_D262G_YF]: 0.437
- GFRVCYTPDSR [PTPRF_Y451_Y450C_YF]: 0.444
- VPLLEYFWDIF [CDAN1_Y712_R714W_YF]: 1.68

What does the data say about its SH2 binding enrichment? Entry: PSQRRNVYYYS [PTEN_Y174_Y174N]
1.25

Item: GRIHSYRGHLW [VHL_Y112_R107G]
1.61

Item: IKNFKYGIEEH [GJA1_Y137_K134N]
0.416

Item: IVRSLYEDLED [VHL_Y185]
7.79

Item: VEDHDYEGGIG [TKT_Y564_Y563D]
0.402

Item: DQGEQYKKELE [LMNA_Y259_V256G]
0.517

Item: CLNAIYQNNLT [GSR_Y158_R153C]
0.807

Item: LGIDRYHAIVF [NPSR1_Y147_S143G_YF]
1.28

Item: CATIHYNFMCN [TP53_Y234_T230A_YF]
2.23

Item: VLALWYYYLTN [ZDHHC23_Y127_H132N]
1.02

Item: TTKGSYSLYVR [HCK_Y180_S183Y]
0.647

---

biological target: Grb2 SH2 (UniProt P62993); experiment: SH2 binding enrichment of the phosphorylated peptide, bacterial display (enrichment ratio); higher = better substrate or ligand; peptides without Tyr show the background
Sequence (P62993 whole entry, looked up): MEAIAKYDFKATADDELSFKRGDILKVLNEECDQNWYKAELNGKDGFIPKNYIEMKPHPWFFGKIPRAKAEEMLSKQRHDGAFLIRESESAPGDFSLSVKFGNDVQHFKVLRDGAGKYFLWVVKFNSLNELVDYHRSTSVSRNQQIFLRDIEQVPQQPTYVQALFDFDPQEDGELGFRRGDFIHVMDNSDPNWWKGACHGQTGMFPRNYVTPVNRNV
observable: SH2 binding enrichment

Previously resolved entries follow.
• TVFSDYLHPQF [CCPG1_Y569_YF] = 0.667
• GRPLSYWLTGC [LYZL6_Y140_F139S] = 0.763
• GRRNTYFASIA [ACADM_Y352_YF] = 0.696

What does the data say about its SH2 binding enrichment? Entry: VTAALYGCLFE [BTD_Y536_R538C_YF]
0.85

Item: CEQELYSQLVF [WAS_Y102_W97C_YF]
0.933

Item: SREDIYKRNIE [PDE4DIP_Y45]
0.767

Item: HTLMKYTDGDQ [PUS7L_Y94_I92M]
0.794

Item: GASRRYGSGVS [NEU1_Y242_W240R]
0.852

Item: STGRSYAGVAV [KLHL3_Y577]
0.878

Item: GEYYRYLAEVA [YWHAG_Y133_D129E]
0.827

Item: QKNVSYVSTVS [TASOR_Y1043]
0.679

---

target: MERTK (UniProt Q12866); experiment: phosphorylation enrichment, bacterial display (enrichment ratio); higher = better substrate or ligand; peptides without Tyr show the background
Sequence (Q12866 whole entry, looked up): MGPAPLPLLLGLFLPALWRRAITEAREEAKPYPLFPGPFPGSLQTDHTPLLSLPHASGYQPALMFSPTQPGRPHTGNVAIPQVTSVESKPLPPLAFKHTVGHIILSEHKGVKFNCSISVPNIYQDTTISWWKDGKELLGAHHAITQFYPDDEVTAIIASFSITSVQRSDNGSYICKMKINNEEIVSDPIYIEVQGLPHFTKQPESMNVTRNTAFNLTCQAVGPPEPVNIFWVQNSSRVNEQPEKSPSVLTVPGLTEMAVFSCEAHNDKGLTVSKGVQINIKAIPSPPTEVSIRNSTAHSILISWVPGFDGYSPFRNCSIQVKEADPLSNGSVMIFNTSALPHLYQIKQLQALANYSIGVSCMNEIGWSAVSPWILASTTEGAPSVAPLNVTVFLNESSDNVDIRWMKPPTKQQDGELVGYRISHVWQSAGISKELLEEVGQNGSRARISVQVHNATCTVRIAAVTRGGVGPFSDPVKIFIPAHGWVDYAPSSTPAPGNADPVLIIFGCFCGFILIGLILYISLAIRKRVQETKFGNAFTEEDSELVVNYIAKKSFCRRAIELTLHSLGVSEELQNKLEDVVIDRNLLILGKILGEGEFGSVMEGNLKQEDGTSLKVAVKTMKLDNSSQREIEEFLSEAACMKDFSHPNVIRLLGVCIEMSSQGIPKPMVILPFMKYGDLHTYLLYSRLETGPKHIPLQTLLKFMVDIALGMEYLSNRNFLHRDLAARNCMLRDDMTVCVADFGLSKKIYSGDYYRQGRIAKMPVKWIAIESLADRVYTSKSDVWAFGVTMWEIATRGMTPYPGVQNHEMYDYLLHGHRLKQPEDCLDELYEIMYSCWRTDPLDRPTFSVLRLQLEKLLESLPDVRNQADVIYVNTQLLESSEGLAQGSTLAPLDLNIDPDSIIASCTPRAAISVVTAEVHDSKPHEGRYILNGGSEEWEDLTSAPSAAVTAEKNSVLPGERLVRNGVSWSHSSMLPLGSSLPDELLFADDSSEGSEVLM
Recorded phosphorylation enrichment by entry
Kindly provide the number alone.

Previously resolved entries follow.
- TDKLFYIFTSG [SLC27A4_Y243_YF]: 0.538
- QFKGKYLAKHN [CASK_Y712_D710G_YF]: 0.632
- QKNVSYVSTVS [TASOR_Y1043]: 0.509

Query the reported phosphorylation enrichment for MERTK (UniProt Q12866); item: VLALWYYYLTN [ZDHHC23_Y127_H132N]
3.86

Item: SHSMKYFDTAV [HLA-C_Y31_R30K]
0.436

Item: LTFDEYRNISQ [ANXA3_Y216]
0.498

Item: DLAGRYYALKS [CKB_Y173]
1.65

---

molecular target: Fyn (UniProt P06241); assay: phosphorylation enrichment, bacterial display (enrichment ratio); higher = better substrate or ligand; peptides without Tyr show the background
Sequence (P06241 whole entry, looked up): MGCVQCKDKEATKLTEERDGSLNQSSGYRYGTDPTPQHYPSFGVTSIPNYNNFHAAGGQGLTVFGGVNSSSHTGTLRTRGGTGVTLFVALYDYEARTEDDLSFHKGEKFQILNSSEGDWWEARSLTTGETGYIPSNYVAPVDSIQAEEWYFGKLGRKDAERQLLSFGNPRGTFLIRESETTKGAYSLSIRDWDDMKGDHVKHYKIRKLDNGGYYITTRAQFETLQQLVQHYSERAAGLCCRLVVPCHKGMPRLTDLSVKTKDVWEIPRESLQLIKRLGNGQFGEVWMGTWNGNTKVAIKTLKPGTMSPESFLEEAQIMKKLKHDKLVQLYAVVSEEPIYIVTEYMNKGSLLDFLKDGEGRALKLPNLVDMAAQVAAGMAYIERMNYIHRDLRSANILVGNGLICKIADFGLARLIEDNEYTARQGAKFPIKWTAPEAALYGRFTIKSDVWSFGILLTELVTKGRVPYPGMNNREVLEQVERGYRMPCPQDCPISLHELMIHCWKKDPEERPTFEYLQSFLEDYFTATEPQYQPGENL
observable: phosphorylation enrichment
Kindly provide the number alone.

Previously resolved entries follow.
• EGELRYMHSRV [ABCD1_Y281_K276E] = 0.507
• KLVRLYAVVTR [LYN_Y306] = 0.402

What does the data say about its phosphorylation enrichment? Entry: NPSFNYEIVNQ [DYNC1H1_Y3379_R3384Q_YF]
0.524

Item: MVTSGYKAKMI [EFR3A_Y447_T451M]
0.355

Item: QFKGKYLAKHN [CASK_Y712_D710G_YF]
0.415

---

target: MERTK (UniProt Q12866); assay: phosphorylation enrichment, bacterial display (enrichment ratio); higher = better substrate or ligand; peptides without Tyr show the background
observable: phosphorylation enrichment
Kindly provide the number alone.

Previously resolved entries follow.
• VGEGPYLLSDL [ABCC12_Y7_I9L] = 0.385
• EKMWTYMPSAE [GRIA4_Y695_R697P] = 0.363

Query the reported phosphorylation enrichment for MERTK (UniProt Q12866); item: CTTIHYNYMWN [TP53_Y234_C238W]
1.82

Item: SFPPTYRYERG [INPPL1_Y661]
0.505

Item: RAMRRYLERGE [ERBB3_Y680]
0.61

Item: TLLERYGMIEI [ACSF3_Y355_T358I]
0.489

Item: FDGGCYEQLFV [MC4R_Y41_S36Y_YF]
0.875
